Source: the nanobody polyreactivity screen of Harvey et al. (2022)

- procedureDetails: yeast display, Sf9 membrane polyspecificity reagent, FACS + sequencing; frameworks hold sequencing errors
valueKind: polyreactivity (PSR sort gate)

As a guide, the following entries are already answered.
orderedResidues | valueKind | readoutValue
QVQLVESGGGLVQAGGSLRLSCAASGFTFGSYVMGWYRQAPGKERELVADISIRGGSTYYADSVKGRFTISRDNAKNTVYLQMNSLKPEDTAVYYCNADPAFYYWEGIVGGADYDYWGQGTQVTVSS | polyreactivity (PSR sort gate) | low polyreactivity
QVQLVESGGGLVQAGGSLSLSCAASGLTFFGYAIGWYRQAPGKEREVVAAISTSGTRTYYADSVKGRFTISRDNAKNTVYLQMNSLKPEDTAVYYCATVRYQEYDYWGQGTQVTVSS | polyreactivity (PSR sort gate) | high polyreactivity
QVQLVESGGGLVQAGGSLRLSCAASGYTFGKNAMGWYRQAPGKERELVAAISRSGGSTFYADSVKGRFTISRDNAKHTVYLQMNSLKPEDTAVYYCAARSYVRFDYWGQGTQVTVSS | polyreactivity (PSR sort gate) | high polyreactivity
QVQLVESGGGLVQAGGSLRLSCAASGSTFGPYAMGWYRPAPGKERELVADITSSDGSTYYADSVKGRFTISRDNAKNSVYFHLNSLKREDTAVYYCNADYRYIWTYWGWTIYDYWGQGTQVTVSS | polyreactivity (PSR sort gate) | high polyreactivity
QVQLVDSGGGLVQAGGSLRLICAASGSIFGKNAMGWYRQAPGKERELVAAISKRGGTTYYADSVKGRFTISRDNAKNTFYLLMNSLKPEDTAVYYCAAYYYVHRSSHYLSPYDFWGQVTQVTVSS | polyreactivity (PSR sort gate) | high polyreactivity

So, QVQLVESGGGLVQAGGSLRLSCAASGRIFSRYAMGWYRQAPGKERELVASIRITGSTYYADSVKGRFTISRDNAKTTVYLQMNSLKPEDTAVYYCAAYQYRLGNIRLNYWGQGTQVTVSS ? Its polyreactivity (PSR sort gate) was high polyreactivity

The sequence listed as QVQLVESGGGLVQAGGSLRLSCAASGSIFGWNAMGWYRQAPGKERELVASITWSGGRTYYADSVKGRFTISRDNAKNTVYLQMNSLKPEDTAVYYCAARGYTVWDDYWGQGTQVTVSS shows polyreactivity (PSR sort gate) equal to high polyreactivity

QVQLVESGGGLVQAGGSLRLSCAASGSIFTYNAMGWYREAPGKERELVAAIRLSGGSTYYADSVKGRFTISRDNAKNTVYLQMNSLKPEDTAVYYCAAESAAASAVYSVEYDYWGQGTQVTVSS yielded polyreactivity (PSR sort gate) of low polyreactivity

sequence QVQLVESGGGLVQAGGSLRLSSAASGRIFSRNGMGWYRPAPGKERELVAAIRRYGGSTYYADSVKGRFTISRDNEKNTVNLQMNSLKAEDTAVFFCAAEPYGGGVKHSAYDYWGQGTQVTVSS , polyreactivity (PSR sort gate) observed: low polyreactivity

Lab note: QVQLVESGGGLVQAGGSLRLSCAASGSIFVYNAMGWYRQAPGNERELVAGINYSGGSTYYADSVKGRFTISRDNATNTVYLQMNSLKPEDTAVYSCARRRPYQWPYNYWGQGTQVTVSS gave polyreactivity (PSR sort gate) of high polyreactivity

polyreactivity (PSR sort gate) reading for QVQLVESGGGLVQAGGSLRLSCPATGSTFGSYAMAWYRPAPGKERELVADISSRGASTYYADSVKGRFTISRDNAKNTVYLQMNSLKPEDTAVYYCARDVYIWYGYGYFPEYEYWGQGTQVTVSS : low polyreactivity

* * *

- procedureDetails: yeast display, Sf9 membrane polyspecificity reagent, FACS + sequencing; frameworks hold sequencing errors
valueKind: polyreactivity (PSR sort gate)

Solved cases below.
orderedResidues | polyreactivity (PSR sort gate)
QVQLVESGGGLVQAGGSLRLSCAASGRTFPYNAMGWYRTAPGKERELVAAISSGGSTNYADSVKGRFTISRDNAKNTVYLQMNSLKPEDTAVYYCAVTGWPRYTWYSYGYWGQGTQVTVSS | low polyreactivity
QVQLVESGGGLVQAGGSLRLSCAASGFIFYSSDMGWYRQSPGKERELVAAIDSRGVNTYYADSVKGRFTISRDNAKNTVYLQMNSLKPEDTAVYYCNVDAINWWDWEDFDYWGQGTQVTVSS | low polyreactivity
QVQLVESGGGLVQAGGSLRLSCAASGRIVGYYAMGWYRQAPGKERELVATITFGGGSTYYADTVKGRFTISRDIAKNTVYLQMNSLKPEDTAVYYCAAEIYPLGSLRLGPGEYDHWGQGTQVTVSS | low polyreactivity
QVQLVESGGGLVQAGGSLRLSCAASGSTFRHYAMGWYRQAPGKERELVAVISWGGTSTYYADSVKGRFTISRDNAKNTVYLQMNSLKPEDTAVYYCNKAYFPIFKGYEMYYWGQGTQVTVSS | low polyreactivity
QVQLVESGGGLVQAGGSLRLSCAASGSTFVRNDMGLYRQAPGKERELVAAITRGGRTYYADSVKGRFTISRDNAKNTVYLQMNSLKPEDTAVYYCAAEGTGYSVGWQYGYWVQGTQVTVSS | low polyreactivity

Record QVQLVESGGGLVQAGGSLRLSCAASGITFSRNTMGWYRQGPGKERELVAAITYSGGRTYYADSVKGRFTISRDNAKNTVYLQMNSLKPEDTAVYYCARRGTGKYPYYQHYYWGQGTQVTVSS , field polyreactivity (PSR sort gate): high polyreactivity

The reported polyreactivity (PSR sort gate) of the sequence QVQLVESGGGLVQAGGSLRLSCAASGITFNSYVMGWYRQAPGKERELVAAIRWSGGRTYYADSVKGRFTISRDNAKNTVYLQMNSLKPEDTAVYYCNRVTRSHVDYWGQGTQVTVSS was high polyreactivity

For this sequence ( QVQLVESGGGLVQAGGTLRLSCAASGRISTHNAMGWYRQAPGKERELVAAITSGGRTTYADSVKGRFTISRDNAKNTVYLLMNSLKPEDTAVYYCNADTGLGSLDFDKRDYWGQGTQVTVSS ), measured polyreactivity (PSR sort gate) is low polyreactivity

Sample QVQLVESGGGLVQAGGSLRLSCAASGSTFHGYDMGWYRQAPGKERELVAAITSSGDDTYYADSVKGRFTISRDNAKNTVYLQMNSLKPEDTAVYYCAAEYTEGYTHDYWGQGTQVNVSS ; polyreactivity (PSR sort gate) observed: low polyreactivity

polyreactivity (PSR sort gate) reading for QVQLVESGGGLVQAGGSLRLICAASGRTFGGNAMGWYRQAPGKEWDLVAAISYSDGSKYYADSVKGRFTISRDNANNSVYLQMNSLKPEDTAVYYCAAARHVRTDYLDYDYWGQGTQVTVSS : low polyreactivity

Quick note, polyreactivity (PSR sort gate) for QVQLVESGGGLVQAGGSLRLSCAASGRIFFGYAMGWYRQAPGKERELVASISRGGSTNYADSVKGRFTISRDNAKNTVYLQMNSLKPEDTAVYYCAASRYLQRYGMYYWGQGTQVTVSS landed at high polyreactivity

* * *

- procedureDetails: yeast display, Sf9 membrane polyspecificity reagent, FACS + sequencing; frameworks hold sequencing errors

orderedResidues | polyreactivity (PSR sort gate)
QVQLVESGGGLVQAGGSLRLSCAASGRIFLRNAMGWYRPAPGKERELVAGISSIGGITYYADSVKGRFTISRDNAKNTVYLQMNILKPEDTAVYYCAKGLYLHTSGHGPYDYWGQGTQVTVSS | low polyreactivity
QVQLVESGGGLVQAGGSLRLSCAASGSTFAGNAMGWYRQAPGKERELVAAIDSSTGSTYYADSVKGRFTISRDNAKNTVYLQMNSLKPEDTAVYYCAAGYYWQYTSSSAQYAYDYWGQGTQVTVSS | low polyreactivity

* * *

- procedureDetails: yeast display, Sf9 membrane polyspecificity reagent, FACS + sequencing; frameworks hold sequencing errors
valueKind: polyreactivity (PSR sort gate)

orderedResidues | polyreactivity (PSR sort gate)
QVQLVESVGGLLQAGGSLRLSCAASGSIFFVYTMGWYRQAPGKERELFATITDSDGGTYYADSVKGRFTISRDNAKNTVYVQMNSLKPEDTAVYYCAAEVEVYFAIYEYWGQGTQVTVSS | low polyreactivity
QVQLVESGGGLVQAGGSLRLSCAASGRTFRYNTMGWYRQAPGKERELVASISWGGGSTYYADSVKGRFTISRDNAKNTVYLQMNSLKPEDTAVYYCAARRWGQFRFEYWGQGTQVTVSS | high polyreactivity
QVQLVESGGGLVQAGGSLRLSCAASGRIFVRYAMGWYRQAPGKERELVAAISYRGGSTYYADSVKGRFTISRDNAKNTVYLLMNSLKPEDTAVYYCAARNSYGNWSYYYWGQGTQVTLSS | high polyreactivity
QVQLVESGGGLVQAGGSLRLSCAASGFTFYSYAMGWYRQAPGKERELVAAITQSGGSTYYADSVKGRFTISRDNAKNTVYLQMNSLKPEDTAVYYCAADIYNDYDYGYYYWGQGTQVTVSS | low polyreactivity

Entry QVQLVESGGGLVQAGGSLSLTWAASGRTFLEYTMGWYRQAPGKERELVAAISSTGGSTNYADSVKGRFTISRDNAKNSVYLQMNSVKPEDTAVYYCAARLRRRSATSTRMGYWGLGTQVTVSS ; polyreactivity (PSR sort gate) = high polyreactivity

So for QVHLVESGGCLVQAGGSLRLSCAASGSTFPSYAMGWYRQAPGKERELVAAINSGGGTNYADSVKGRFTITRDNAKNTVYLQLNILKPEDSAVYYGAADVWKLYDYWGQGTQVTVSS , the logged polyreactivity (PSR sort gate) turned out to be low polyreactivity

Entry QVQLVESGGGLVQAGGSLRLSCAASGRNLGYNAMGWYRQAPGKERELVAAISWSGGSTYYADSVKGRFTISRDNAKNTVYLQMNSLKPEDTAVYYCAARNNRYPLYNYWGQGTQVTVSS ; polyreactivity (PSR sort gate) = low polyreactivity

Sure, the documented polyreactivity (PSR sort gate) for QVQLVESGGGLVQAGGSLRLSCAASGFIFASYAMGWYRQAPGKERELVATITRNGGITYYADSVKGRFTISRDNAKNTVYLQMNSLKPEDTAVYYCAKRRSGKSNVSFYPYAYDYWGQGTQVTVSS is low polyreactivity

Notebook: QVQLVESGGGLVQAGGSLRLSCAASGSIFRAYAMGWYRQAPGKERELVAAITGNGARTYYADSVKGRFTISRDNAKNTVYLQMNSLKPEDTAVYYCAKRGNRQHRWWYDYWGQGTQVTVSS , polyreactivity (PSR sort gate) read as low polyreactivity

Noted for QVQLVESGGGLVQAGGSLRLSCAASGRISTRYTMGWYRQAPRKERELVAAISGNAGRTYYADSVKGRFTISRDNAKNTVYLEMNSLKPADTAVYYCARESGYRAYEIQFYYWGQGTQVTVSS : its polyreactivity (PSR sort gate) reads high polyreactivity

Kindly note the recorded polyreactivity (PSR sort gate) for QVQLVESGGGLVQAGGSLRLSCAASGRTFDANAMGWYRPAPGKERELVAAISSDGSTNYADSVKGRFTISRDNAKNTVYLQMNSLKPEDTAVYYCATDGKPLIRYDYDYWGQGTQVTVSS , which is high polyreactivity
